Data provenance: the array DNA melting data of Ke et al. (doi:10.1101/2024.01.08.574731)

assay: melting temperature; fluorescence melt of hairpins on a sequencing array, two-state fit, raised by 9.35 °C to match UV melts; details: sodium 0.088 M
Values of Tm strictly less than 40 °C map to satisfied, and values of at least 40 °C map to not satisfied.

Sample answers from the record:
| SEQ_TEXT | ASSIGNED_CLASS |
| --- | --- |
| GCGGAGGCGAAAGCCCGC (((..(((....)))))) | not satisfied |
| GTTGCCGAAAGGCAAAC ((((((....))).))) | not satisfied |
| GAACTGGGAAACCAGTTC (((((((....))))))) | not satisfied |
| GATCTGGCATCAGATC ((((((....)))))) | not satisfied |
| GTCTAGCCGAAAGGCGAC (((..(((....)))))) | not satisfied |

Lookup: For this sequence, is Tm lower than 40 °C? GCACTCGAAAGAGAATGC ((((((....)))..)))
Found: satisfied

Lookup: For this sequence, is Tm lower than 40 °C? GCCGACGAAAGTCTCGGC ((((((....)))..)))
Found: not satisfied

Lookup: For this sequence, is Tm lower than 40 °C? GGTGGGGAAACCCACC ((((((....))))))
Found: not satisfied

Lookup: For this sequence, is Tm lower than 40 °C? GATCTTGACAAGATC ((((((...))))))
Found: not satisfied

Lookup: For this sequence, is Tm lower than 40 °C? GTAGGCGAAAGCCAGTAC ((((((....)))..)))
Found: satisfied

Lookup: For this sequence, is Tm lower than 40 °C? GGACTCGGAAACAAGTCC (((((.(....).)))))
Found: not satisfied

Lookup: For this sequence, is Tm lower than 40 °C? GCATCACGAAAGTGCTGC (((.(((....))).)))
Found: not satisfied

Lookup: For this sequence, is Tm lower than 40 °C? GGGGTGGGAAACTACCCC (((((.(....).)))))
Found: not satisfied

Lookup: For this sequence, is Tm lower than 40 °C? GATCCCGCATGGGATC ((((((....))))))
Found: not satisfied

Lookup: For this sequence, is Tm lower than 40 °C? GACTGGCGAAAGCCGTC (((.(((....))))))
Found: not satisfied

====

assay: folding enthalpy; higher = less favourable; fluorescence melt of hairpins on a sequencing array, two-state fit; settings: sodium 0.088 M
Below: a set of entries, each annotated with reported folding enthalpy.
Write it as a number; the unit kcal/mol goes unstated.

Please review the following examples before continuing.
| SEQ_TEXT | QUANTITY_MEASURED | REPORTED_VALUE |
| --- | --- | --- |
| GATCTACGTGTAGATC ((((((....)))))) | folding enthalpy | -48.5 |
| GCGACAGGAAACCATCGC ((((..(....)..)))) | folding enthalpy | -17 |

As a next step, examine the sequence that follows.
Lookup: Respond only with folding enthalpy recorded for GTGAGCGGAAACGCTTAC ((.((((....)))).))
Found: -27.1

====

assay: folding enthalpy; higher = less favourable; fluorescence melt of hairpins on a sequencing array, two-state fit; details: sodium 0.088 M
QUANTITY_MEASURED: folding enthalpy (kcal/mol)
Write it as a number; the unit kcal/mol goes unstated.

| SEQ_TEXT | QUANTITY_MEASURED | REPORTED_VALUE |
| --- | --- | --- |
| GCTCACGAAAGTGGAAGC ((((((....)))..))) | folding enthalpy | -20.9 |
| GTGGCACGAAAGTGCAC (((.(((....)))))) | folding enthalpy | -11 |
| GATCATCCCCATGATC ((((((....)))))) | folding enthalpy | -34.9 |
| GATCTCAGTCGAGATC ((((((....)))))) | folding enthalpy | -35.1 |

Lookup: Respond only with folding enthalpy recorded for GGCCGCACGAAAGTGGCC (((..(((....))))))
Found: -26.5

Lookup: Respond only with folding enthalpy recorded for GGCAAGGGAAACCTTGCC (((((((....)))))))
Found: -33.1

====

assay: folding enthalpy; higher = less favourable; fluorescence melt of hairpins on a sequencing array, two-state fit; settings: sodium 0.088 M
QUANTITY_MEASURED: folding enthalpy (kcal/mol)
Write it as a number; the unit kcal/mol goes unstated.

| SEQ_TEXT | UNIT_INFO | folding enthalpy |
| --- | --- | --- |
| GATCCGCGAAAGCGAATC (((.(((....))).))) | kcal/mol | -20.2 |
| GATCACTGAAGTGATC ((((((....)))))) | kcal/mol | -36.4 |
| GGGATGGGAAACCGTCTC (.((.((....)).)).) | kcal/mol | -26.1 |
| GCGGTTCCCGC ((((...)))) | kcal/mol | -22.1 |
| GCGGACGGCCGC ((((....)))) | kcal/mol | -37.6 |
| CTTCAGAAATGAAG (((((....))))) | kcal/mol | -11.5 |

Lookup: Respond only with folding enthalpy recorded for CTAACTGAAAAGTTAG ((((((....))))))
Found: -23.3

Lookup: Respond only with folding enthalpy recorded for GGACTCGAAAGAGAGTCC ((((((....)))..)))
Found: -40.5

====

assay: folding enthalpy; higher = less favourable; fluorescence melt of hairpins on a sequencing array, two-state fit; details: sodium 0.088 M
QUANTITY_MEASURED: folding enthalpy (kcal/mol)
Write it as a number; the unit kcal/mol goes unstated.

Please review the following examples before continuing.
| SEQ_TEXT | folding enthalpy [kcal/mol] |
| --- | --- |
| GATCCCGCATGGGATC ((((((....)))))) | -32.9 |
| GATCCCCGAAAGGGATC (((.(((....)))))) | -29.8 |
| GCTAAACGAAAGTTCAGC (((.(((....))).))) | -28.7 |
| CGCACGGAAACGTGGCG ((((((....))).))) | -25.9 |
| GATCTAACACTAGATC ((((((....)))))) | -24.6 |

Lookup: Respond only with folding enthalpy recorded for GTACCGGGAAACCGGTGC (.(((((....))))).)
Found: -19.1

Lookup: Respond only with folding enthalpy recorded for GCGGCTCCCGC ((((...))))
Found: -23.7

Lookup: Respond only with folding enthalpy recorded for GTCGGACCGAAAGGTGAC (((..(((....))))))
Found: -18

Lookup: Respond only with folding enthalpy recorded for GCCCCGGCGAAAGCCGGC (((..(((....))))))
Found: -2.7

Lookup: Respond only with folding enthalpy recorded for GTCATACGAAAGTACGAC (((.(((....))).)))
Found: -28.7

Lookup: Respond only with folding enthalpy recorded for GTCTGCGAAAGCAGCGAC ((((((....)))..)))
Found: -12.5

Lookup: Respond only with folding enthalpy recorded for GCAGAGCGAAAGCGCGGC ((.(.((....)).).))
Found: -20.9

====

Below: a set of entries, each annotated with reported Tm.
assay: melting temperature; fluorescence melt of hairpins on a sequencing array, two-state fit, raised by 9.35 °C to match UV melts; conditions: sodium 0.088 M
Write it as a number; the unit °C goes unstated.

Please review the following examples before continuing.
| SEQ_TEXT | Tm, °C |
| --- | --- |
| GTAAGCGAAAGCTTTAC ((((((....))).))) | 42 |
| CGAGCGGAAACGCTTTCG ((((((....)))..))) | 30.4 |
| GAACTTGGAAACAAGTTC (((((((....))))))) | 57.4 |
| GCGAGGATCGC ((((...)))) | 59.4 |

Lookup: Respond only with Tm recorded for GTCGTAGGAAACTGTGAC (((..((....))..)))
Found: 30.8

Lookup: Respond only with Tm recorded for GCTTAAGGAAACTTGAGC (((.(((....))).)))
Found: 38.9

Lookup: Respond only with Tm recorded for GATCGAAGGTCGATC ((((((...))))))
Found: 50.9

Lookup: Respond only with Tm recorded for GATCCGGCGTCGGATC ((((((....))))))
Found: 58.2

Lookup: Respond only with Tm recorded for GGGATACGAAAGTAACCC (((.(((....))).)))
Found: 51.7

Lookup: Respond only with Tm recorded for GGCCGCACGAAAGTGGCC (((..(((....))))))
Found: 58.9

====

assay: folding enthalpy; higher = less favourable; fluorescence melt of hairpins on a sequencing array, two-state fit; conditions: sodium 0.088 M
QUANTITY_MEASURED: folding enthalpy

Please review the following examples before continuing.
| SEQ_TEXT | REPORTED_VALUE |
| --- | --- |
| GCTGAGACGAAAGTCAGC (((..(((....)))))) | -21.4 kcal/mol |
| GGTTCCTCGAAAGAGACC (((..(((....)))))) | -10.1 kcal/mol |
| GATCAAACAGTTGATC ((((((....)))))) | -25.8 kcal/mol |

As a next step, examine the sequence that follows.
Lookup: Respond only with folding enthalpy recorded for GGAGCTGGAAACAACTCC ((((.((....)).))))
Found: -31.2 kcal/mol
